biological target: CK1α (Homo sapiens, UniProt P48729+Q96SW2); construct: CSNK1A1-HiBit KI HEK293(LgBit) Cells; host or cells: HEK293(LgBit) knock-in cells; assay: HiBiT degradation assay, CK1α, Procedure A; format: cell-based; conditions: six hours incubation
Sequence (P48729 whole entry): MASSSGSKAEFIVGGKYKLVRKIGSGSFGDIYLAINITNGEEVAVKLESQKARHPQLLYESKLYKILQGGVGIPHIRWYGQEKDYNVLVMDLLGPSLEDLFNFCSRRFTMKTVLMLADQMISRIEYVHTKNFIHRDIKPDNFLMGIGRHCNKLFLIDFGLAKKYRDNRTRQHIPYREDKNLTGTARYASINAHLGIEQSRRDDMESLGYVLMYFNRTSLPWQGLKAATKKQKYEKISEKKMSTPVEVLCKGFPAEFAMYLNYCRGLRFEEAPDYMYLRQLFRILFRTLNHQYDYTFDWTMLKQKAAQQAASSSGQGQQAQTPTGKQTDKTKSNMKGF
Sequence (Q96SW2 whole entry): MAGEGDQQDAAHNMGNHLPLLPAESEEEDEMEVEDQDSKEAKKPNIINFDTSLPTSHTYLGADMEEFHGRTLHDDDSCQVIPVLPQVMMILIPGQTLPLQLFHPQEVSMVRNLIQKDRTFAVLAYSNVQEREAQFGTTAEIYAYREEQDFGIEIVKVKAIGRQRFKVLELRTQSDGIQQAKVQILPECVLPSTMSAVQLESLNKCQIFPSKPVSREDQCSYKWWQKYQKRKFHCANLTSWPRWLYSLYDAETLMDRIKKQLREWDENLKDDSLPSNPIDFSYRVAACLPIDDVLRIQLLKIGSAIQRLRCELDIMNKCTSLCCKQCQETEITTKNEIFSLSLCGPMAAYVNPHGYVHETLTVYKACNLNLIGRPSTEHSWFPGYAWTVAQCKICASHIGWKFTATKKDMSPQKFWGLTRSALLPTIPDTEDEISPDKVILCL
Sequence (Q16531 whole entry partner): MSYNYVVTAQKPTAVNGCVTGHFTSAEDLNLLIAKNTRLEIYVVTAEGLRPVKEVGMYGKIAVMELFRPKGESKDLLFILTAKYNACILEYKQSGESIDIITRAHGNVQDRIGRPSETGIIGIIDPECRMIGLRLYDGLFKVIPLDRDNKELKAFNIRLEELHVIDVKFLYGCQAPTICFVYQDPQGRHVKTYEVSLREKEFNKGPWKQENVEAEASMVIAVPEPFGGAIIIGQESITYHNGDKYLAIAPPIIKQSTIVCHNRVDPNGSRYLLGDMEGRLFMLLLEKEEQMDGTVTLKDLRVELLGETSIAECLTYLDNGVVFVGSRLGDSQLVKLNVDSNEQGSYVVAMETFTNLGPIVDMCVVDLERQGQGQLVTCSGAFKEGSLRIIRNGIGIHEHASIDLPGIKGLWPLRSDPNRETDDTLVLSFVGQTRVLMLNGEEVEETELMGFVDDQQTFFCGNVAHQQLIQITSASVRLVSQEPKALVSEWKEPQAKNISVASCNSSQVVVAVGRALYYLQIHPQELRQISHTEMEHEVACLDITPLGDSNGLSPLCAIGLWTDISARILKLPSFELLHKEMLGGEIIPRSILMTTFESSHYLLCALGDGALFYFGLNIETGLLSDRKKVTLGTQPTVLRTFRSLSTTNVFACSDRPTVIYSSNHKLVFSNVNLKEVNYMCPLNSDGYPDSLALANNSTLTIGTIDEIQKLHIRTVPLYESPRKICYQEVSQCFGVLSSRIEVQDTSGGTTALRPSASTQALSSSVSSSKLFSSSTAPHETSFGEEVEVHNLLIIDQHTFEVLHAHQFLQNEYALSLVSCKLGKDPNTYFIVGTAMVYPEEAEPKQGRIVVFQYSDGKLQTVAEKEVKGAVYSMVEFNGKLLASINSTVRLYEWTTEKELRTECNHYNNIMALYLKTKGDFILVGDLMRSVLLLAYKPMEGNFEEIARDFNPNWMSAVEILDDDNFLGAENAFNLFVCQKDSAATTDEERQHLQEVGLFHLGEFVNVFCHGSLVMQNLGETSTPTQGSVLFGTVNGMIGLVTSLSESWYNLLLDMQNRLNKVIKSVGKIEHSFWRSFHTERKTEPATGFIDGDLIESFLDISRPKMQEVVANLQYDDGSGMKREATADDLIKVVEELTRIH
measuredParameter: DC50

Here's what some known entries look like.
Cc1cccc(-c2c(-c3ccc4c(c3)CN(C3CCC(=O)NC3=O)C4=O)ncn2C)c1 (stereo not drawn); < 25 nM
Cn1ncc(-c2ccc3c(c2)CN(C2CCC(=O)NC2=O)C3=O)c1-c1cc(F)cc(F)c1 (stereo not drawn) [Example 139]; ≥ 25 nM
Cn1cnc(-c2ccc3c(c2)CN(C2CCC(=O)NC2=O)C3=O)c1-c1ccn(C)c(=O)c1 (stereo not drawn); ≥ 25 nM

So for Cn1c(C2CCCCC2)nc(-c2ccc3c(c2)CN(C2CCC(=O)NC2=O)C3=O)c1-c1ccccc1 (stereo not drawn) , the logged DC50 turned out to be < 25 nM

Recorded DC50 (molecule Cn1ncc(-c2ccc3c(c2)CN(C2CCC(=O)NC2=O)C3=O)c1-c1ccc(S(C)(=O)=O)cc1 (stereo not drawn) ): ≥ 25 nM

Value of DC50 reported for the molecule Cn1cnc(-c2ccc3c(c2)CN(C2CCC(=O)NC2=O)C3=O)c1-c1cnc(C#N)nc1 (stereo not drawn) is ≥ 25 nM

----------
biological target: CK1α (Homo sapiens, UniProt P48729+Q96SW2); construct: CSNK1A1-HiBit KI HEK293(LgBit) Cells; host or cells: HEK293(LgBit) knock-in cells; assay: HiBiT degradation assay, CK1α, Procedure A; type: cell-based; conditions: six hours incubation
Property: DC50; scope: individual compounds

Would you please look over these solved cases?
Cc1ccc(-c2c(-c3ccc4c(c3)CN(C3CCC(=O)NC3=O)C4=O)ncn2C)cc1F (stereo not drawn); < 0.025 µM
CN1CCN(c2ccc(-c3c(-c4ccc5c(c4)CN(C4CCC(=O)NC4=O)C5=O)cnn3C)cc2)CC1 (stereo not drawn); < 0.025 µM
Cn1cnc(-c2ccc3c(c2)CN(C2CCC(=O)NC2=O)C3=O)c1-c1cccc(C(=O)NC2CCCCC2)c1 (stereo not drawn); ≥ 0.025 µM

DC50 for Cn1cnc(-c2ccc3c(c2)CN(C2CCC(=O)NC2=O)C3=O)c1-c1ccc2c(c1)OCC2 (stereo not drawn) is < 0.025 µM

Reported DC50 ( COc1ccc(F)c(-c2c(-c3ccc4c(c3)CN(C3CCC(=O)NC3=O)C4=O)ncn2C)c1 (stereo not drawn) ) = < 0.025 µM

DC50 in this record for Cc1ccc(-c2c(-c3ccc4c(c3)CN(C3CCC(=O)NC3=O)C4=O)cnn2C)cc1 (stereo not drawn) : < 0.025 µM
